The origin of these recorded values is patent US20250230140A1.

molecular target: LPA1 (Homo sapiens, UniProt Q92633); construct: ProLink (β-galactosidase enzyme-donor fragment); experiment: LPA1 calcium flux assay (LPA1 functional antagonist assay); details: PathHunter CHO-K1 EDG2 β-Arrestin cells, calcium indicator dye, stimulated with EC80 concentration of LPA, FLIPR
Sequence (Q92633 whole entry, the tested form may be a part): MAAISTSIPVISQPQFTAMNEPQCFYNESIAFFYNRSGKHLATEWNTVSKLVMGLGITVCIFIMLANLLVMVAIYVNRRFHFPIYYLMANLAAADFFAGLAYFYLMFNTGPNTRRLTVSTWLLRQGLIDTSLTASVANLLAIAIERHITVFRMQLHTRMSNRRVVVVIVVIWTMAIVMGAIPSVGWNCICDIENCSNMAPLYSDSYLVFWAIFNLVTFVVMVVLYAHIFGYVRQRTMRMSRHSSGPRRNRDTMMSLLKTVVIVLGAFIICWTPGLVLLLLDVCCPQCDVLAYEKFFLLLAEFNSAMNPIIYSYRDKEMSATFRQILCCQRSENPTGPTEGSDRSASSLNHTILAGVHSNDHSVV
// values below are reported IC50

INSERT INTO assay_data (molecule, readout_name, experimental_result) VALUES
  ('CCCN(C)C(=O)OCc1c(-c2ccc(N3CC[C@@H](C(CC)C(=O)O)C3)c(CC)n2)nnn1C (single isomer, unassigned) [Example 20]', 'IC50', '0.5 to 5 µM'),
  ('CCc1nc(-c2nnn(C)c2COc2nccc(C3CCC3)n2)ccc1N1CC[C@H](CC(=O)O)C1', 'IC50', '0.1 to 0.5 µM'),
  ('CCc1nc(-c2nnn(C)c2COc2nccc(C3CCC3)n2)ccc1N1CC[C@@H](CC(=O)O)C1', 'IC50', '< 0.1 µM'),
  ('CCCc1ccc(=O)n(Cc2c(-c3ccc(O[C@H]4CCC[C@H](C(=O)O)C4)c(CC)n3)nnn2C)c1', 'IC50', '< 0.1 µM'),
  ('CCc1nc(-c2nnn(C)c2COc2nccc(C3CCC3)n2)ccc1N1CC[C@@H]([C@H](C)C(=O)O)C1', 'IC50', '< 0.1 µM'),
  ('Cc1nc(-c2nnn(C)c2COc2nccc(C3CCC3)n2)ccc1N1CCC(CC(=O)O)C1 (stereo not drawn)', 'IC50', '< 0.1 µM'),
  ('Cc1nc(-c2nnn(C)c2CN2CC(CC3CC3)N(C)C2=O)ccc1O[C@H]1CCC[C@H](C(=O)O)C1 (stereo partly drawn)', 'IC50', '0.1 to 0.5 µM'),
  ('CCCN(C)C(=O)OCc1c(-c2ccc(C3CCOC(CC(=O)O)C3)c(CC)n2)nnn1C (stereo not drawn)', 'IC50', '0.5 to 5 µM');

In: What value of IC50 has been recorded for this entry: CCCN(C)C(=O)OCc1c(-c2ccc(N3CC[C@@H](C(CC)C(=O)O)C3)c(CC)n2)nnn1C (single isomer, unassigned) [Example 19]
Out: 5 to 10000 µM

In: // same read-out, input: CCc1nc(-c2nnn(C)c2COc2nccc(C3CCC3)n2)ccc1C1CCOC(CC(=O)O)C1 (single isomer, unassigned) [Example 37]
Out: < 0.1 µM

In: // same read-out, input: `CCc1nc(-c2nnn(C)c2Cn2cc(CC3CC3)ccc2=O)ccc1O[C@H]1CCC[C@H](C(=O)O)C1`
Out: < 0.1 µM

In: // same read-out, input: Cc1nc(-c2nnn(C)c2COc2nccc(C3CCC3)n2)ccc1C1CCCC(CC(=O)O)C1 (stereo not drawn)
Out: < 0.1 µM

In: // same read-out, input: Cc1nc(-c2nnn(C)c2COc2nccc(C3CCC3)n2)ccc1C1COCC(CC(=O)O)C1 (stereo not drawn)
Out: 0.1 to 0.5 µM

In: // same read-out, input: CCCc1ccc(=O)n(Cc2c(-c3ccc([C@@H]4CCC[C@@H](CC(=O)O)O4)c(CC)n3)nnn2C)c1 (single isomer, unassigned)
Out: 0.5 to 5 µM

In: // same read-out, input: CCCc1ccc(=O)n(Cc2c(-c3ccc(N4CC[C@@H](C(CC)C(=O)O)C4)c(CC)n3)nnn2C)c1 (single isomer, unassigned) [Example 17]
Out: 0.5 to 5 µM

In: // same read-out, input: `CCCc1ccc(=O)n(Cc2c(-c3ccc(N4CC[C@@H](C(C)(C)C(=O)O)C4)c(CC)n3)nnn2C)c1`
Out: < 0.1 µM

In: // same read-out, input: CCc1nc(-c2nnn(C)c2COc2nccc(C3CCC3)n2)ccc1C1CCOC(CC(=O)O)C1 (single isomer, unassigned) [Example 36]
Out: < 0.1 µM

In: // same read-out, input: CCc1nc(-c2nnn(C)c2COc2nccc(C3CCC3)n2)ccc1C1CCOC(CC(=O)O)C1 (single isomer, unassigned) [Example 34]
Out: < 0.1 µM
